# System: EpiSC-derived OPCs
# ASSAY PROTOCOL: In vitro phenotypic screening of OPCs (MBP high-content imaging)
# Type: cell-based
# STUDY CONDITIONS: Mus musculus, 72 h; percentage of MBP-positive oligodendrocytes, 3 days, 0.5 nM to 1000 nM; read-out: OPC EC50
ATTRIBUTE MEASURED: EC50 (nM)

A selection of reference data follows.
INSERT INTO assay_data (molecule, attribute_measured, reported_measurement) VALUES
  ('CC(C)n1nc(-c2cncc(OC(F)F)c2)cc1[C@H]1[C@@H]2C[C@@H](N3CCC4(CC3)CS(=O)(=O)C4)C[C@@H]21 (single isomer, unassigned)', 'EC50', 14),
  ('CC(C)(C)n1nc(C(F)(F)F)cc1[C@H]1[C@@H]2C[C@H](N3CCC4(CC3)CS(=O)(=O)C4)C[C@@H]21', 'EC50', 19),
  ('CCn1nc(-c2ccnc(C(F)(F)F)c2)cc1[C@H]1[C@@H]2C[C@@H](N3CCC4(C3)CS(=O)(=O)C4)C[C@@H]21', 'EC50', 6.5),
  ('CCn1nc(-c2cncc(C(F)(F)F)c2)cc1[C@H]1[C@@H]2C[C@@H](N3CCC4(CC3)CS(=O)(=O)C4)C[C@@H]21 (single isomer, unassigned)', 'EC50', 33);

[I] CC(C)(C)n1nc(C(F)(F)F)cc1[C@H]1[C@@H]2C[C@H](N3CCC4(C3)CS(=O)(=O)C4)C[C@@H]21 (single isomer, unassigned)
[II] CC(C)n1nc(-c2cc(C(F)(F)F)ccn2)cc1[C@H]1[C@@H]2C[C@@H](N3CCC4(C3)CS(=O)(=O)C4)C[C@@H]21 (single isomer, unassigned)
Hi! Which is lower in terms of EC50, the first one I or the second one II ? Please identify the chosen entry by its label. I

###

# TEST TARGET: human emopamil binding protein and human 7-dehydrocholesterol reductase (hEBP-DHCR7) (Homo sapiens)
pKi: −log10 of the molar value.
ATTRIBUTE MEASURED: pKi

Below: 5 molecules and their reported pKi.
INSERT INTO assay_data (molecule, reported_measurement) VALUES
  ('O=S1(=O)CC[C@@]2(CCCN([C@@H]3C[C@@H]4[C@H](C3)[C@H]4c3cc(C(F)(F)F)nn3CC(F)F)C2)C1 (single isomer, unassigned)', 7.67),
  ('CC(C)n1nc([C@H]2CC[C@](O)(C(F)(F)F)CC2)cc1[C@H]1[C@@H]2C[C@@H](N3CCC4(C3)CS(=O)(=O)C4)C[C@@H]21 (single isomer, unassigned)', 6.79),
  ('CC(C)n1nc(-c2cc(C(F)(F)F)ccn2)cc1[C@H]1[C@@H]2C[C@@H](N3CCC4(C3)CS(=O)(=O)C4)C[C@@H]21 (single isomer, unassigned)', 7.31),
  ('CC(C)n1nc(-c2cncc(C(F)(F)F)c2)cc1[C@H]1[C@@H]2C[C@H](N3CCC4(C3)CS(=O)(=O)C4)C[C@@H]21 (single isomer, unassigned)', 7.84),
  ('CC(C)n1nc(-c2cncc(OC(F)F)c2)cc1[C@H]1[C@@H]2C[C@H](N3CCC4(CC3)CS(=O)(=O)C4)C[C@@H]21 (single isomer, unassigned)', 7.46);

[A] C[C@H](C(F)F)n1nc(C(F)(F)F)cc1[C@H]1[C@@H]2C[C@H](N3CCC4(CC3)CS(=O)(=O)C4)C[C@@H]21 (racemic)
[B] CCn1nc(-c2cncc(F)c2)cc1[C@H]1[C@@H]2C[C@H](N3CCC4(C3)CS(=O)(=O)C4)C[C@@H]21 (single isomer, unassigned)
[C] CCn1nc(-c2cccnc2)cc1[C@H]1[C@@H]2C[C@@H](N3CCC4(C3)CS(=O)(=O)C4)C[C@@H]21 (single isomer, unassigned)
// ascending sort on recorded pKi // list labels; follow requested order C, B, A
(C: 6.69, B: 7.46, A: 7.75)

###

# TEST TARGET: human emopamil binding protein and human 7-dehydrocholesterol reductase (hEBP-DHCR7) (Homo sapiens, UniProt Q15125)
# Sequence (Q15125 whole entry): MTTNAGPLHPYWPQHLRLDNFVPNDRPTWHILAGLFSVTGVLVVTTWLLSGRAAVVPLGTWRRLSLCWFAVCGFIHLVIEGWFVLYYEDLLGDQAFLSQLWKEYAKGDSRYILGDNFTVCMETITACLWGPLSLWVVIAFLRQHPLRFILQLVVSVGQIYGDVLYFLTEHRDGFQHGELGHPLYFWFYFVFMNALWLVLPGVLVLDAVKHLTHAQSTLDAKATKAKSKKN
pKi: −log10 of the molar value.
ATTRIBUTE MEASURED: pKi

[a] CC(C)(C)n1nc(C(F)(F)F)nc1[C@H]1[C@@H]2C[C@@H](N3CCC4(C3)CS(=O)(=O)C4)C[C@@H]21 (single isomer, unassigned)
[b] CC(C)n1nc(-c2cccc(C(F)(F)F)n2)cc1[C@H]1[C@@H]2C[C@@H](N3CCC4(CC3)CS(=O)(=O)C4)C[C@@H]21 (single isomer, unassigned)
[c] CC(C)n1nc(-c2cc(C(F)(F)F)ccn2)cc1[C@H]1[C@@H]2C[C@H](N3CCC4(C3)CS(=O)(=O)C4)C[C@@H]21 (single isomer, unassigned)
Ascending by pKi, please. Thanks in advance for listing the labels in the requested order. b, a, c
(b: 6.76, a: 7.03, c: 7.77)

###

# Tested on: EpiSC-derived OPCs
# ASSAY PROTOCOL: In vitro phenotypic screening of OPCs (MBP high-content imaging)
# Assay type: cell-based
# STUDY CONDITIONS: Mus musculus, 72 h; percentage of MBP-positive oligodendrocytes, 3 days, 0.5 nM to 1000 nM; read-out: OPC EC50
ATTRIBUTE MEASURED: EC50 (nM)

INSERT INTO assay_data (compound, test_target, reported_measurement) VALUES
  ('O=S1(=O)CC2(CCN([C@H]3C[C@@H]4[C@H](C3)[C@H]4c3cc(C(F)(F)F)nn3CC(F)F)CC2)C1 (single isomer, unassigned)', 'EpiSC-derived OPCs', 130);

[I] CC(C)n1nc(-c2cccc(C(F)(F)F)n2)cc1[C@H]1[C@@H]2C[C@H](N3CCC4(CC3)CS(=O)(=O)C4)C[C@@H]21 (single isomer, unassigned)
[II] C[C@H](C(F)F)n1nc(C(F)(F)F)cc1[C@H]1[C@@H]2C[C@H](N3CCC4(CC3)CS(=O)(=O)C4)C[C@@H]21 (racemic)
[III] C[C@H](C(F)F)n1nc(C(F)(F)F)cc1[C@H]1[C@@H]2C[C@@H](N3CCC4(CC3)CS(=O)(=O)C4)C[C@@H]21 (racemic)
[IV] CC(C)n1nc(C(F)(F)F)cc1[C@H]1[C@@H]2C[C@@H](N3CCC4(CC3)CS(=O)(=O)C4)C[C@@H]21 (single isomer, unassigned)
Ascending by EC50, please: list the compounds accordingly. Order the labels as requested and list them. I, III, IV, II
(I: 15 nM, III: 24 nM, IV: 48 nM, II: 76 nM)

###

# TEST TARGET: human emopamil binding protein and human 7-dehydrocholesterol reductase (hEBP-DHCR7) (Homo sapiens)
ATTRIBUTE MEASURED: Ki (nM)

[a] CCn1nc(-c2cncc(F)c2)cc1[C@H]1[C@@H]2C[C@@H](N3CCC4(C3)CS(=O)(=O)C4)C[C@@H]21 (single isomer, unassigned)
[b] O=S1(=O)CC2(CCN([C@@H]3C[C@@H]4[C@H](C3)[C@H]4c3cc(C(F)(F)F)n(CC(F)F)n3)CC2)C1 (single isomer, unassigned)
Identify the item whose Ki is the smaller number: a or b // return label of chosen record a

###

# Test system: EpiSC-derived OPCs
# ASSAY PROTOCOL: In vitro phenotypic screening of OPCs (MBP high-content imaging)
# Assay type: cell-based
# STUDY CONDITIONS: Mus musculus, 72 h; percentage of MBP-positive oligodendrocytes, 3 days, 0.5 nM to 1000 nM; read-out: OPC EC50
pEC50: −log10 of the molar value.
ATTRIBUTE MEASURED: pEC50

Known pEC50 results, listed for orientation:
INSERT INTO assay_data (compound, attribute_measured, reported_measurement) VALUES
  ('CC(C)(C)n1nc(C(F)(F)F)cc1[C@H]1[C@@H]2C[C@@H](N3CCC4(CC3)CS(=O)(=O)C4)C[C@@H]21 (single isomer, unassigned) [Compound 55]', 'pEC50', 8.48),
  ('CC(C)n1nc(-c2cncc(C(F)(F)F)c2)cc1[C@H]1[C@@H]2C[C@H](N3CC[C@@]4(CCS(=O)(=O)C4)C3)C[C@@H]21 (single isomer, unassigned) [Compound 9*]', 'pEC50', 8.42);

[a] CC(C)n1nc(-c2cccc(C(F)(F)F)n2)cc1[C@H]1[C@@H]2C[C@@H](N3CCC4(C3)CS(=O)(=O)C4)C[C@@H]21 (single isomer, unassigned) [Compound 11]
[b] CCn1nc(-c2cncc(C(F)(F)F)c2)cc1[C@H]1[C@@H]2C[C@H](N3CCC4(CC3)CS(=O)(=O)C4)C[C@@H]21 (single isomer, unassigned) [Compound 54*]
Look at a and b . Which one has the lower recorded pEC50 number? Choose, then provide that item's label. b
(b: 7.51, a: 7.85)

[1] CCn1nc(-c2cncc(C(F)(F)F)c2)cc1[C@H]1[C@@H]2C[C@@H](N3CCC4(C3)CS(=O)(=O)C4)C[C@@H]21 (single isomer, unassigned) [Compound 24]
[2] CCn1nc(-c2cncc(F)c2)cc1[C@H]1[C@@H]2C[C@H](N3CCC4(C3)CS(=O)(=O)C4)C[C@@H]21 (single isomer, unassigned) [Compound 69*]
Of 1 and 2 , which one carries the higher reported pEC50? Give the chosen item's label as your response. 1

[I] CC(C)n1nc(C(F)(F)F)cc1[C@H]1[C@@H]2C[C@H](N3CCC4(CC3)CS(=O)(=O)C4)C[C@@H]21 (single isomer, unassigned) [Compound 44*]
[II] CC(C)n1nc(-c2cncc(OC(F)F)c2)cc1[C@H]1[C@@H]2C[C@H](N3CCC4(CC3)CS(=O)(=O)C4)C[C@@H]21 (single isomer, unassigned) [Compound 46*]
Which numeric pEC50 is bigger, that of I or that of II ? Select an item and report its label. I

[a] CC(C)n1nc(-c2cccc(C(F)(F)F)n2)cc1[C@H]1[C@@H]2C[C@H](N3CCC4(C3)CS(=O)(=O)C4)C[C@@H]21 (single isomer, unassigned) [Compound 12]
[b] CC(C)n1nc(-c2cnc(C(F)(F)F)nc2)cc1[C@H]1[C@@H]2C[C@@H](N3CCC4(C3)CS(=O)(=O)C4)C[C@@H]21 (single isomer, unassigned) [Compound 102]
In the pair a and b , the larger recorded pEC50 belongs to which? Returns: label corresponding to the selected item. a
(a: 8.01, b: 7.19)
